measurement-target: TRPA1 (Homo sapiens, UniProt O75762)
Sequence (O75762 whole entry): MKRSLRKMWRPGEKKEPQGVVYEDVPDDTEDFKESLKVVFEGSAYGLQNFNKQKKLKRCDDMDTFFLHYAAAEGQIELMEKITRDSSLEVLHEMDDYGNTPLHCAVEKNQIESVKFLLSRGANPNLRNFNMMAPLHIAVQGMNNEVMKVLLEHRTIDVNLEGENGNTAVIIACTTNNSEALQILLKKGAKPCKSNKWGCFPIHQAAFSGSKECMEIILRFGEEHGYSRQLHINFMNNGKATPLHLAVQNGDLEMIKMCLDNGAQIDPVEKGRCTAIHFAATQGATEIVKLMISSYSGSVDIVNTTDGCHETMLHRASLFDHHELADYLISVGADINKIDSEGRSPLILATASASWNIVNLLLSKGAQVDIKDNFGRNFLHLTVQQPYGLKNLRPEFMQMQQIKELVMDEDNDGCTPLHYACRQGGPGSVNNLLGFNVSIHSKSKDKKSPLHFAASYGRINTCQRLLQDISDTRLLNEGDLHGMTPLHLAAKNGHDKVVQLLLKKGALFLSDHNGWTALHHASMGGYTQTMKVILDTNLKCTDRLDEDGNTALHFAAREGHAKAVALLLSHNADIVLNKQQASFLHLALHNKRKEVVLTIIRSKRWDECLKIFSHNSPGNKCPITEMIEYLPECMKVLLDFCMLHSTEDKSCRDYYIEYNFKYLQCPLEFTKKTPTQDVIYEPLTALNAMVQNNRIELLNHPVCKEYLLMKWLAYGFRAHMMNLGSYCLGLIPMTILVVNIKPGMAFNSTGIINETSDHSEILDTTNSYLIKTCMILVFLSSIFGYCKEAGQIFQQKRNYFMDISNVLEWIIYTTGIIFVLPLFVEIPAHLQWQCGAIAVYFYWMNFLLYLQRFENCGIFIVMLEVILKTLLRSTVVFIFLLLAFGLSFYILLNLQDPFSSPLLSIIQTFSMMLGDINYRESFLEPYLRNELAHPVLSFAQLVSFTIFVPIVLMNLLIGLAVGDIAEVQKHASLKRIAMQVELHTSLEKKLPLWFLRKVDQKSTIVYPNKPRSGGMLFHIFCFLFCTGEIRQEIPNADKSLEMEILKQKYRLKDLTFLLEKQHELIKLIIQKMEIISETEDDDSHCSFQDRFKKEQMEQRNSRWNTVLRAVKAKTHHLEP
measurement-description: whole-cell patch clamp in HEK293
observed-property: pEC50
Just so you know, pEC50 here is -log10 of the concentration in molar units; reply with that number alone.

Prompt: Report pEC50 under test system TRPA1 (Homo sapiens, UniProt O75762) for O=[N+]([O-])c1ccc(F)c([N+](=O)[O-])c1 [DNFB] .
Completion: 5.64

Prompt: Report pEC50 under test system TRPA1 (Homo sapiens, UniProt O75762) for O=[N+]([O-])c1ccc(Cl)c([N+](=O)[O-])c1 [DNCB] .
Completion: 4.37
